- Test system: SNB-75 CNS
- Protocol notes: NCI-60 one-dose screen, 48 h
- Measurement parameters: 10 µM unless noted
- Description: Growth inhibition of the SNB-75 human tumor cell line is measured as a screen for anti-cancer activity. Cells are grown in 96 well plates and exposed to the test compound for 48 hours. Compounds are tested at a single concentration, which is 10^-5 M for most compounds. The reported endpoint is percent growth (GI% or GIPRCNT), where numbers from 0 - 100% represent growth inhibition, and numbers from -100% - 0 represent cell death. For example, a value of 40 represents 60% growth inhibition. […]
Compounds without any hit were thinned out: in the full panel of roughly 83,000, 20% have a hit. Active and inactive are the calls of the source. How the source made its calls: active means growth percent below 10; inactive means the rest.
Outcome codes: active, inactive

Compound	Target under test	Discrete label
c1cc2ccc1CNCCN1CCNCc3ccc(cc3)Oc3ccc(cc3)CNCCN(CCNCc3ccc(cc3)O2)CCNCc2ccc(cc2)Oc2ccc(cc2)CNCC1	SNB-75 CNS	active
Nc1nc(N)c2c(n1)NC(c1ccc(F)cc1)C1CCc3ccccc3C1=N2 (centres undefined)	SNB-75 CNS	inactive
CCOC(=O)CC(c1ccccc1)C(C#N)c1ccccc1 (centres undefined)	SNB-75 CNS	inactive
C[C@@H]1C[C@H]2C(=O)O[C@@H](C)[C@H](NC(=O)[C@H](Cc3cc(F)cc(F)c3)NC(=O)Nc3ccc(Cl)cc3F)C(=O)N3C[C@H](O)C[C@H]3C(=O)N3CCN(C)C[C@H]3C(=O)N[C@@H](C)C(=O)N2C1	SNB-75 CNS	inactive
CCOC(=O)c1cc(C(=O)c2ccc(OC)c(OC)c2)n2ccc(-c3ccccn3)cc12	SNB-75 CNS	inactive
COc1c(C(C)=O)c(OCCCCOc2c(C(C)=O)c(OC)c3ccoc3c2OC)c(OC)c2occc12	SNB-75 CNS	inactive
O=S(=O)(c1ccc(N/N=C\c2ccccc2Cl)cc1)c1ccc(N/N=C/c2ccccc2Cl)cc1	SNB-75 CNS	inactive
CCCN1CC(c2ccc(OC)c(OC)c2)=C(c2cn(C(=O)OCC)c3ccccc23)C1=O	SNB-75 CNS	active
N#CCCc1c[nH]c2ccccc12	SNB-75 CNS	inactive
COCCCNc1nc(NC(=O)c2cc(OC)cc(OC)c2)cc(-c2cccnc2)n1	SNB-75 CNS	inactive
O=C(N=c1n(-c2ccccc2)nc2n1CCN2C1=NCCN1)c1ccc(Cl)cc1	SNB-75 CNS	inactive
Cc1ccc(NC(=S)/N=c2/n(-c3ccccc3)nc3n2CCN3C2=NCCN2)cc1	SNB-75 CNS	inactive
O=S(=O)(NCCNc1nccc(-c2c(-c3cccc(F)c3)nc3occn23)n1)c1ccc(C(F)(F)F)cc1	SNB-75 CNS	inactive
CC1(C)CC[C@]23CC[C@]4(C)[C@H](CC[C@@H]5[C@@]6(C)C/C(=C/c7cccnc7)C(=O)C(C)(C)[C@@H]6CC[C@]54C)[C@H]2[C@H]1OC3=O	SNB-75 CNS	inactive
O=C1NC(=O)c2cc([N+](=O)[O-])cc3cccc1c23	SNB-75 CNS	inactive
FC(F)(F)c1ccc2c(c1)Sc1ccccc1N2	SNB-75 CNS	inactive
O=C1CC(c2ccc3c(c2)OCO3)Nc2ccccc21 (centres undefined)	SNB-75 CNS	active
CC1=C/C(=C(\c2cc(C)c(O)c(C(=O)O)c2)c2c(Cl)cccc2Cl)C=C(C(=O)O)C1=O	SNB-75 CNS	inactive
Cc1cc(C)c(O)c(CNCCCCCCNCc2cc(C)cc(C)c2O)c1	SNB-75 CNS	active

* * *

- System: LOX IMVI melanoma
- Protocol notes: NCI-60 one-dose screen, 48 h
- Measurement parameters: 10 µM unless noted
The panel holds about 83,000 compounds, 20% with a hit somewhere; the sample as a whole holds those more often. Calls of active or inactive are those of the source. The calls were made as follows: active = growth percent below 10; inactive = the rest.
Outcome codes: active, inactive

Molecule	Discrete label
C=C(C)[C@@H]1CC[C@]2(C(=O)N3CCN(C)CC3)CC[C@]3(C)[C@H](CC[C@@H]4[C@@]5(C)C/C(=C/c6ccncc6)[C@H](O)C(C)(C)[C@@H]5CC[C@]43C)[C@@H]12	active
CCCCC(CCCCCC(CCCC)C1NC(C)Cc2cc(OC)c(OC)cc21)C1NC(C)Cc2cc(OC)c(OC)cc21 (stereo not given)	active
C[n+]1c2ccccc2nc2c(N)cc(N)cc21	inactive
O=c1[nH]c2cc(Cl)c(Cl)cc2n2cc3ncccc3c12	inactive
Clc1ccc(N2CCN(CCCN3CCN(c4cccc(Cl)c4)CC3)CC2)cc1	inactive
COc1cc2c(c(OC)c1)C1c3cc(OC)ccc3NC(=O)N1CC2 (stereo not given)	inactive
N=C(N)c1ccc(-c2ccc(-c3ccc(-c4cccs4)s3)s2)cc1F	inactive
Cn1cc(-c2noc(-c3cn(C)c4ncccc34)n2)c2cc(Cl)ccc21	inactive
O=C(N=c1n(-c2ccccc2)nc2n1CCN2C1=NCCN1)c1ccc(Cl)cc1	inactive
CCOC(=O)n1cc(C2=C(c3ccc(OC)c(OC)c3)COC2=O)c2ccccc21	inactive
Cc1cc[n+](CCCCCCCCCC[n+]2ccc(C)cc2)cc1	inactive
CC(C)C1=NOC(=O)C1=Cc1cn(-c2ccccc2)nc1-c1ccc(Br)cc1	inactive
O=[N+]([O-])c1cc(CCl)ccc1OCCBr	inactive
CN(C)CCCNc1nc(-c2cccc(C(Cl)(Cl)Cl)c2)nc(C(Cl)(Cl)Cl)n1	inactive
Fc1cc2[nH]ncc2c2c3c(c(-c4cn[nH]c4)nc12)CCCC3	active
CCn1cc(-c2[nH]c(=S)ncc2-c2ccc(Cl)cc2)c(-c2ccc(Br)cc2)n1	inactive
Cc1ncc(C(=O)Nc2ccc(CN3CCN(C)CC3)c(C(F)(F)F)c2)cc1C#Cc1c(N)ncc2ccc(C#N)cc12	active
CCOc1ccc(S(=O)(=O)Nc2ccc3c(c2)N(S(=O)(=O)CC)CCC3)cc1	inactive
NC(=S)Cc1ccccc1	active
Cc1cnc(N)nc1OCCNC(=O)c1cccc(-c2ccc(S(=O)(=O)Nc3ccc4c(c3)N(C(=O)C3CC3)CCC4)cc2)c1	inactive

* * *

- Test system: SK-MEL-5 melanoma
- Protocol notes: NCI-60 one-dose screen, 48 h (100 = growth as untreated, 0 = no growth, -100 = all killed)
- Measurement parameters: 10 µM unless noted
The panel holds about 83,000 compounds, 20% with a hit somewhere; the sample as a whole holds those more often. Calls of active or inactive are those of the source. How the source made its calls: active means growth percent below 10; inactive means the rest.
Listed compounds paired with reported growth
Readout label: growth

> print(dat)
                                    compound  target.under.test               val
 1  Cc1ccc(C2=C/C(=C/c3ccc(Br)cc3)C(=O)N2CCc2ccc(S(N)(=O)=O)cc2)cc1  SK-MEL-5 melanoma  94.7% (inactive)
 2                   CCCCCCSc1ncnc2nc[nH]c12  SK-MEL-5 melanoma    94% (inactive)
 3  O=C(Nc1ccc(Oc2ccc(F)cc2)c(Cl)c1)c1cnccn1  SK-MEL-5 melanoma  49.5% (inactive)
 4   O=[N+]([O-])c1ccc(O)c(-c2nc3ccccc3s2)c1  SK-MEL-5 melanoma  25.3% (inactive)
 5  CCOC(=O)C1=C(C(=O)c2ccc(Br)cc2)C(c2ccc(Br)cc2)NC(=S)N1 (stereo not given)  SK-MEL-5 melanoma   103% (inactive)
 6    Cc1ccc(NCCN2CCCCC2)c2c(=O)c3ccccc3sc12  SK-MEL-5 melanoma   -92.2% (active)
 7  Nc1cc(N)c(N=Nc2ccc(S(=O)(=O)O)cc2)cc1N=Nc1ccc(-c2ccc(N=Nc3ccc(O)c(C(=O)O)c3)cc2)cc1  SK-MEL-5 melanoma   101% (inactive)
 8  [2H]C1([2H])CCN(C(=O)C2CC2)c2cc(NS(=O)(=O)c3ccc(-c4cccc(C(N)=O)c4)cc3)ccc21  SK-MEL-5 melanoma  15.4% (inactive)
 9  O=C1CC(C(F)(F)F)Cc2nc3ccc(Br)cc3cc21 (stereo not given)  SK-MEL-5 melanoma  92.6% (inactive)
10           NC1=NC(=O)NC1(c1ccccc1)c1ccccc1  SK-MEL-5 melanoma  95.9% (inactive)

* * *

- Test system: SK-MEL-5 melanoma
- Protocol notes: NCI-60 one-dose screen, 48 h
- Measurement parameters: 10 µM unless noted
About 83,000 compounds went through this panel and 20% of them were active in at least one assay; those are over-represented in the sample as a whole. The source made the active and inactive calls. The calls were made as follows: active = growth percent below 10; inactive = the rest.
Outcome codes: active, inactive

> print(dat)
                                    compound  target.under.test  discrete.label
 1  C=C(C)[C@@H]1CC[C@]2(c3ncc(C)o3)CC[C@]3(C)[C@H](CC[C@@H]4[C@@](C)(CCC#N)[C@H](C(=C)C)CC[C@]43C)[C@@H]12  SK-MEL-5 melanoma          active
 2  COC(=O)[C@]12CCC(C)(C)C[C@H]1C1=CC[C@@H]3[C@@]4(C)C/C(=C/c5cccnc5)C(=O)C(C)(C)[C@@H]4CC[C@@]3(C)[C@]1(C)CC2  SK-MEL-5 melanoma          active
 3  C[C@]12CCc3c(ccc4cc(O)ccc34)[C@@H]1CC[C@H]2O  SK-MEL-5 melanoma        inactive
 4  C#C[C@]1(O)CC[C@H]2[C@@H]3CC=C4c5nc(Nc6ncccn6)sc5CC[C@]4(C)[C@H]3CC[C@@]21C  SK-MEL-5 melanoma        inactive
 5  CCCCCC1CCCCN1C(=O)OCCCC (stereo not given)  SK-MEL-5 melanoma        inactive
 6        NC(=O)CC1C=CCC1 (stereo not given)  SK-MEL-5 melanoma        inactive
 7  COc1cc(/C=C/C(=O)/C=C/c2ccc(-n3ccnc3C)cc2)ccc1O  SK-MEL-5 melanoma        inactive
 8  CC(C)[N+](C)(C)CC(O)COc1cccc2ccccc12 (stereo not given)  SK-MEL-5 melanoma        inactive
 9  O=C(Nc1cc(-c2cccnc2)nc(NCCCN2CCOCC2)n1)c1cc(Br)cc(C(F)(F)F)c1  SK-MEL-5 melanoma          active
10  COc1cc(C)cc2oc3oc(=O)c(-c4nc5ccccc5s4)cc3c(=O)c12  SK-MEL-5 melanoma        inactive

Hey, just so you know, these numbers are from PubChem BioAssay (NCI).
